Reference source for all entries: PubChem BioAssay

TEST METHOD NOTES: inhibition of 3D7 malaria parasite growth – strain 3D7 (AID 2306);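 note: 0% = DMSO wells and 100% = chloroquine plus artemisinin control wells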
TEST CONTEXT: P. falciparum 3D7 erythrocytic growth, LDH absorbance, 72 h; at 2 µM; active compounds read high
MEASURED ATTRIBUTE: growth inhibition (%)
Give the quantity in %, number only.

Worked cases, answers included:
{"COMPOUND": "COc1cc2c(cc1OCCN1CCC(N3CCCCC3)CC1)N(C(=O)/C=C/c1ccccc1Cl)CC2", "UNIT ANNOTATION": "%", "growth inhibition": 102}
{"COMPOUND": "Cc1ccoc1C(=O)Nc1cccc(-c2cccc(-c3nc4ccccc4[nH]3)c2)c1", "UNIT ANNOTATION": "%", "growth inhibition": 85}
{"COMPOUND": "NC(N)=NC(=O)Nc1cc(F)c(Cl)c(Br)c1", "UNIT ANNOTATION": "%", "growth inhibition": 101}
{"COMPOUND": "O=C(Cc1ccccc1)NC(CCN1CCC(NC(=O)c2ccc(Cl)cc2)CC1)c1ccc(Cl)c(Cl)c1 (centres undefined)", "UNIT ANNOTATION": "%", "growth inhibition": 85}
{"COMPOUND": "N#Cc1ccc(NC(=O)c2ccc(C(=O)NCCCCN3CCC(c4ccc5c(c4OCCOC4CCCCO4)CCCC5)CC3)cc2)cc1 (centres undefined)", "UNIT ANNOTATION": "%", "growth inhibition": 99}
{"COMPOUND": "N#Cc1ccc(CN2CCC(Oc3ccc(NC(=O)c4ccco4)cc3Cl)C2)cc1 (centres undefined)", "UNIT ANNOTATION": "%", "growth inhibition": 95}
{"COMPOUND": "Cc1cccc2[nH]c(-c3ccc(-c4cccc(CNCc5cccc(N)c5)c4)s3)nc12", "UNIT ANNOTATION": "%", "growth inhibition": 102}
{"COMPOUND": "Cc1c(-c2cccc(C(C)(C)NC3CCN(Cc4ccccc4)CC3)c2)cnc(N)c1C", "UNIT ANNOTATION": "%", "growth inhibition": 100}

Record O=C(Cn1c(CCc2cccc(F)c2F)nc(=O)c2ccccc21)N(Cc1ccc(-c2ccc(C(F)(F)F)cc2)cc1)C1CCN(C2CCOCC2)CC1 . Reported growth inhibition: 101
